Target: T1, SpPot1 (Schizosaccharomyces pombe, UniProt O13988 1-555)
T1 sequence: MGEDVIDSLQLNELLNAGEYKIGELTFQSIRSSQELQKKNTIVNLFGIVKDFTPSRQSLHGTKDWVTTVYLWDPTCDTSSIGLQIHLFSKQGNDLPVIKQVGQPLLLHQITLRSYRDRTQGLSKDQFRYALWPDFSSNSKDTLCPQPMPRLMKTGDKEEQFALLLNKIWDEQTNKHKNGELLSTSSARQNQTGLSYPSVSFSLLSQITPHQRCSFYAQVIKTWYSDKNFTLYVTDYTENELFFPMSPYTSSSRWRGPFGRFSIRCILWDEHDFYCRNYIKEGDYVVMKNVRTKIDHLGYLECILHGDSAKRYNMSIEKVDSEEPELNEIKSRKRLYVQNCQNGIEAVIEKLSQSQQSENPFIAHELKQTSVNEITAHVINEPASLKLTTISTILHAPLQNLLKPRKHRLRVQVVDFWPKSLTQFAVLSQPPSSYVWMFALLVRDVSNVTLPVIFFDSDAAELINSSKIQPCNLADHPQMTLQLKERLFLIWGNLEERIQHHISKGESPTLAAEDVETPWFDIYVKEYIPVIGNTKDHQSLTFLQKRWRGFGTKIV
Kindly supply the reported Kd values for the records listed here.
Numbers only, in pM.

GGTTACGGTTACGGT (ssDNA) [15mer] = 5.2

q: In one line, give reported Kd of the entry GGTTACGGTTAC (ssDNA) [12mer] .
a: 6.7
